# test.description: qHTS Screen of the MIPE 4.0 Collection Against Ewings Sarcoma (EW8) (AID 1259255); also: nearly all actives have a fitted effect of over 35% in size;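 as to viability: 100% = DMSO-treated cells and 0% = medium-only wells without cells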
# condition.context: EW8 Ewing sarcoma viability, CellTiter-Glo, 48 h; series mostly up to 45.8 µM
Results filed as inconclusive are left out. Activity calls are given as the source filed them. Calls follow the shape of the dose curve; as a rule, active = well fitted inhibition curve with a large enough effect; inconclusive = small, poorly fitted or top-dose-only effect; inactive = no such curve, though single readings can be large or run the other way.
Outcomes: true = active, false = inactive

compound: CCCCCN=C(N)NN=Cc1c[nH]c2ccc(OC)cc12
classification: true
--
compound: OCCN1C[C@H](O)[C@@H](O)[C@H](O)[C@@H]1CO
classification: false
--
compound: CC1(C)CC(O)CC(C)(C)N1[O]
classification: false
--
compound: CCOC(=O)C1=C(C)NC(=S)NC1c1cccc(O)c1 (stereo not given)
classification: true
--
compound: CC(C)(O)[C@H]1CC[C@@](C)([C@H]2[C@@H](O)C[C@@]3(C)[C@@H]4C[C@H](O[C@@H]5O[C@H](CO)[C@@H](O)[C@H](O)[C@@H]5O)[C@H]5C(C)(C)[C@@H](O[C@@H]6OC[C@@H](O)[C@H](O)[C@@H]6O)CC[C@@]56C[C@@]46CC[C@]23C)O1
classification: false
--
compound: CCOC(=O)N1CCN([N+]([O-])=NOc2ccc([N+](=O)[O-])cc2C#N)CC1
classification: true
--
compound: COc1cc(N2CCC(C(N)=O)CC2)ccc1Nc1nc(N)c(Cl)c(Nc2ccccc2S(=O)(=O)C(C)C)n1
classification: true
--
compound: CCCc1nc(C(C)(C)O)c(C(=O)O)n1Cc1ccc(-c2ccccc2-c2nn[nH]n2)cc1
classification: false
--
compound: O=C(C=Cc1ccc(CN(CCO)CCc2c[nH]c3ccccc23)cc1)NO
classification: true
--
compound: O=C(NC1CC1)c1cccc(-c2ccc3c(NC(=O)C4CC4)n[nH]c3c2)c1
classification: true
--
compound: C=C1C[C@@]2(O)O[C@@]3(C[C@H]2C(C)C)[C@H](C)CC[C@H]13
classification: false
--
compound: O=C(NCc1ccccc1)[C@H](Cc1ccccc1)NC(=O)[C@@H]1O[C@@H]1C(=O)NCCc1ccc(O)cc1
classification: true
--
compound: COC(=O)[C@@H]1[C@H]2C[C@@H]3c4[nH]c5ccccc5c4CCN3C[C@@H]2CC[C@@H]1O
classification: false
--
compound: CC(C)c1cc(C(C)C)c(CC(=O)NS(=O)(=O)Oc2c(C(C)C)cccc2C(C)C)c(C(C)C)c1
classification: true
--
compound: COC[C@H](NC(=O)c1cnc(C)s1)C(=O)N[C@@H](COC)C(=O)N[C@@H](Cc1ccccc1)C(=O)[C@@]1(C)CO1
classification: true

* * *

# test.description: Quantitative High-Throughput drug screen in 47 multiple myeloma cell lines against the NCATS MIPE library collection: SKMM1_PLB cell viability assay (AID 1919863); also: nearly all actives have a fitted effect of over 35% in size
# condition.context: SKMM1 myeloma viability, CellTiter-Glo ATP, 48 h; stronger effect = lower value
# Description: PI: Beverly A. Mock Ph.D. Laboratory of Cancer Biology and Genetics, Center for Cancer Research, National Cancer Institute, National Institute of Health, Bethesda, Maryland […] 5; Detector; 425V; Luminescence; Viewlux PerkinElmer. […] 1. […] Briefly, the corresponding myeloma cell lines were screened in 1,536-well plates with 500 cells, 5-uL per well for inhibition of cell viability (assessed by measuring ATP levels with CellTiterGlo). […]
Results filed as inconclusive are left out. Starred links: 1 amine or outer side, 2 acyl side, 3 side chain; linkers in the order of their positions; H or OH if unused. Positions of bridges follow the written chain, without caps; N, C: chain ends. Non-standard residues stand in square brackets, D forms with d. Residues, ends and D or L forms follow the SMILES beside them. Chains are numbered I, II in the order given. Actinocin(9to1) = Cc1c2oc3c(C)ccc(C(=O)[*:1])c3nc-2c(C(=O)[*:2])c(N)c1=O; NMeV = CN[CH](C(=O)O)C(C)C; Sar = CNCC(=O)O

molecule: COc1cc(C(C)C)c(Oc2cnc(NC(CO)CO)nc2N)cc1I
viability, %: 122
--
molecule: C[C@H]1O[C@H](O[C@H]2[C@H](O)[C@@H](O)[C@@H](O[C@H]3[C@H](O)[C@@H](O)C(O)O[C@H]3CO)O[C@H]2CO)[C@H](O)[C@@H](O)[C@H]1N[C@H]1C=C(CO)[C@@H](O)[C@H](O)[C@@H]1O (stereo partly drawn)
viability, %: 131
--
molecule: COc1ccc(C(C)=O)c(O)c1
viability, %: 112
--
molecule: O=C(O)C(=O)Nc1cccc(C2=NN=N[N]2)c1
viability, %: 129
--
molecule: O=c1ccn([C@@H]2O[C@H](CO)[C@H](O)[C@@H]2F)c(=O)[nH]1
viability, %: 118
--
molecule: OC[C@H]1OC(O)C[C@@H](O)[C@H]1O (stereo partly drawn)
viability, %: 120
--
molecule: Cn1cnc2c(F)c(Nc3ccc(Br)cc3F)c(C(=O)NOCCO)cc21
viability, %: 115
--
molecule: CN(C)CC(=O)N1CCC(c2ccc(NC(=O)c3ncc(C#N)[nH]3)c(C3=CCCCC3)c2)CC1
viability, %: 127
--
molecule: OCc1ccccc1O[C@@H]1O[C@H](CO)[C@H](O)[C@H](O)[C@H]1O
viability, %: 130
--
molecule: CC(C=CC=C(C)C=CC1=C(C)CCCC1(C)C)=CC=CC=C(C)C=CC=C(C)C=CC1=C(C)CCCC1(C)C
viability, %: 107
--
molecule: O=C(NCc1ccccc1)[C@H](Cc1ccccc1)NC(=O)[C@@H]1O[C@@H]1C(=O)NCCc1ccc(O)cc1
viability, %: 128
--
molecule: O=C(O)CCCCC(CCSCc1ccccc1)SCc1ccccc1 (stereo not drawn)
viability, %: 120
--
molecule: Nc1nc(=O)n([C@H]2C[C@H](O)[C@@H](CO)O2)cc1F
viability, %: 129
--
molecule: CC(C(C)N1CC(=O)NC(=O)C1)N1CC(=O)NC(=O)C1 (stereo not drawn)
viability, %: 134
--
molecule: Cc1c2oc3c(C)ccc(C(=O)NC4C(=O)NC(C(C)C)C(=O)N5CCCC5C(=O)N(C)CC(=O)N(C)C(C(C)C)C(=O)OC4C)c3nc-2c(C(=O)NC2C(=O)NC(C(C)C)C(=O)N3CCCC3C(=O)N(C)CC(=O)N(C)C(C(C)C)C(=O)OC2C)c(N)c1=O (stereo not drawn) (I: TVP[Sar][NMeV] / II: TVP[Sar][NMeV]; ester I:1-I:C, II:1-II:C; linker I:N-II:N via Actinocin(9to1); configuration not given here)
viability, %: -11
--
molecule: CC[C@H](CC[C@@H](C)[C@H]1CC[C@H]2[C@@H]3CC=C4C[C@@H](O)CC[C@]4(C)[C@@H]3CC[C@]12C)C(C)C
viability, %: 106
--
molecule: C[C@H](NC(=O)Cc1cc(F)cc(F)c1)C(=O)N[C@H](C(=O)OC(C)(C)C)c1ccccc1
viability, %: 105
--
molecule: COC(=O)C=CC(=O)OC
viability, %: 144
--
molecule: C=C1C[C@@]2(O)O[C@@]3(C[C@H]2C(C)C)[C@H](C)CC[C@H]13
viability, %: 114
--
molecule: NC(=O)c1cccc(-c2cccc(OC(=O)NC3CCCCC3)c2)c1
viability, %: 110
--
molecule: Cc1ccccc1C(=O)Nc1ccc(C(=O)N2CCCC(O)c3cc(Cl)ccc32)c(C)c1 (stereo not drawn)
viability, %: 139
--
molecule: C[C@H](CCC(=O)O)[C@H]1CCC2C3C[C@H](O)[C@@H]4C[C@H](O)CC[C@]4(C)C3CC[C@@]21C (stereo partly drawn)
viability, %: 96.1
--
molecule: Oc1cc2c(cc1O)C1c3ccc(O)c(O)c3OCC1(O)C2 (stereo not drawn)
viability, %: 120
--
molecule: Cc1noc(-c2ccc(CSCCC(=O)O)cc2)c1NC(=O)OC(C)c1ccccc1Cl (stereo not drawn)
viability, %: 124
--
molecule: O=C(O)CCCCCC(=O)NN=C1CCCC1
viability, %: 119
--
molecule: COc1ccnc2[nH]cc(C(=O)C(=O)N3CCN(C(=O)c4ccccc4)C[C@@H]3C)c12
viability, %: 120
--
molecule: CCCCC(=O)O[C@]1(C(=O)CO)[C@@H](C)C[C@H]2[C@@H]3CCC4=CC(=O)C=C[C@]4(C)[C@@]3(F)[C@@H](O)C[C@@]21C
viability, %: 122
--
molecule: CC(C)(C)[N+]([O-])=Cc1ccc(S(=O)(=O)O)cc1S(=O)(=O)O
viability, %: 115
